# target or test system: Human immunodeficiency virus type 1 reverse transcriptase (Human immunodeficiency virus 1, UniProt Q72547, Y181C)
# test method notes: Binding affinity to HIV1 BH10 isolate reverse transcriptase Y181C mutant expressed in Escherichia coli BL21(DE3)
measured quantity: Kd (µM)
Answers are plain numbers, in µM.

{"molecule": "C/C(=N\\O)c1ccc2c(c1)CCC2", "Kd (µM)": 50}

Give measured Kd for every item shown.
1. Cc1cc2c(cc1[N+](=O)[O-])OCO2
2. COC(=O)C1=C(C)NC(=S)NC1C (configuration not stated)
3. C=CCNc1scnc1S(=O)(=O)c1ccccc1
4. O=C1c2ccccc2CCc2ncccc21
5. O=C(c1ccncc1)c1ccc(Cl)cc1
6. O=C1CCc2c(Br)cccc21

Reply:
100
700
200
300
700
40

----------
# target or test system: Human immunodeficiency virus type 1 reverse transcriptase (Human immunodeficiency virus 1, UniProt Q72547, L100I)
# test method notes: Inhibition of HIV1 BH10 isolate reverse transcriptase L100I mutant catalytic activity expressed in Escherichia coli BL21(DE3) by UV-vis spectrophotometry
measured quantity: IC50 (µM)
Numbers only, in µM.

Ask: Field request: IC50 | item: `O=C1CCc2c(Br)cccc21`
Reply: 25

----------
# target or test system: Human immunodeficiency virus type 1 reverse transcriptase (Human immunodeficiency virus 1, UniProt Q72547, Y181C)
# test method notes: Inhibition of HIV1 BH10 isolate reverse transcriptase Y181C mutant catalytic activity expressed in Escherichia coli BL21(DE3) by UV-vis spectrophotometry
measured quantity: IC50 (µM)
Numbers only, in µM.

Ask: Given the entry `O=C1CCc2c(Br)cccc21` , report its measured IC50.
Reply: 16

----------
Provide the reported pKd of each item.
# test method notes: Binding affinity to wild type HIV1 BH10 isolate reverse transcriptase expressed in Escherichia coli BL21(DE3)
# Set-up: species or system Human immunodeficiency virus type 1 BH10
Answers are plain numbers, as −log10 of the molar value.

The following molecules have reported results that may help.
{"molecule": "C/C(=N\\O)c1ccc2c(c1)CCC2", "measured quantity": "pKd", "numeric value": 3.52}
{"molecule": "CC(C)N1CCC(CCc2c[nH]cn2)CC1", "measured quantity": "pKd", "numeric value": 4.06}
{"molecule": "O=C1CCc2c(Br)cccc21", "measured quantity": "pKd", "numeric value": 3.57}

For each of the items listed, what is its pKd?
1. CCCCCCCCNC(=O)NCc1ccc(O)c(CO)c1
2. Cc1cc2c(cc1[N+](=O)[O-])OCO2
3. O=C1c2ccccc2CCc2ncccc21
4. C=CCNc1scnc1S(=O)(=O)c1ccccc1

Reply:
1. 3.72
2. 4.10
3. 3.74
4. 3.68

Ask: Please report the recorded pKd for COC(=O)C1=C(C)NC(=S)NC1C (centres undefined) .
Reply: 3.42

----------
Field: Kd. Provide a value for each of the compounds that follow.
# target or test system: Human immunodeficiency virus type 1 reverse transcriptase (Human immunodeficiency virus 1, UniProt Q72547, K103N)
# test method notes: Binding affinity to HIV1 BH10 isolate reverse transcriptase K103N mutant expressed in Escherichia coli BL21(DE3)
Numbers only, in µM.

Examples with their reported Kd follow.
{"smiles": "O=C(c1ccncc1)c1ccc(Cl)cc1", "numeric value": 600}
{"smiles": "C=CCNc1scnc1S(=O)(=O)c1ccccc1", "numeric value": 700}
{"smiles": "O=C1c2ccccc2CCc2ncccc21", "numeric value": 50}

Fill in Kd for each of the 3 compounds listed.
1. C/C(=N\O)c1ccc2c(c1)CCC2
2. Cc1cc2c(cc1[N+](=O)[O-])OCO2
3. O=C1CCc2c(Br)cccc21

Reply:
[50, 20, 20]
